assay: Drug concentration in Sprague-Dawley rat brain at 30 mg/kg, po after 1 hr; type: ADME, organism-based; conditions: read-out: Drug uptake
property.name: concentration at 1 h (µM)
Report the value in µM with no unit label.

**Q:** Dear colleague, please send me the reported concentration at 1 h for CC(=O)N1CCCn2nc(COc3ccccc3)cc21 when you can.
**A:** 71

---

pIC50: −log10 of the molar value.
property.name: pIC50

**Q:** State, for Cytochrome P450 2C9 (Homo sapiens, UniProt P11712), measured pIC50 of the compound listed here: CC(=O)N1CCCn2nc(COc3ccccc3)cc21
**A:** < 4.52

---

assay: Oral bioavailability in dog at 5 mg/kg; assay type: ADME, organism-based, Canis lupus familiaris; conditions: in vivo
property.name: bioavailability

**Q:** Dear colleague, please send me the reported bioavailability for CC(=O)N1CCCn2nc(COc3ccccc3)cc21 when you can.
**A:** < 5%

---

molecular target: Metabotropic glutamate receptor 5 (Homo sapiens); test: Positive allosteric modulation of human mGlu5 expressed in HEK293 cells assessed as calcium mobilization; format: functional, cell-based; details: read-out: EC50
Sequence (P41594 whole entry): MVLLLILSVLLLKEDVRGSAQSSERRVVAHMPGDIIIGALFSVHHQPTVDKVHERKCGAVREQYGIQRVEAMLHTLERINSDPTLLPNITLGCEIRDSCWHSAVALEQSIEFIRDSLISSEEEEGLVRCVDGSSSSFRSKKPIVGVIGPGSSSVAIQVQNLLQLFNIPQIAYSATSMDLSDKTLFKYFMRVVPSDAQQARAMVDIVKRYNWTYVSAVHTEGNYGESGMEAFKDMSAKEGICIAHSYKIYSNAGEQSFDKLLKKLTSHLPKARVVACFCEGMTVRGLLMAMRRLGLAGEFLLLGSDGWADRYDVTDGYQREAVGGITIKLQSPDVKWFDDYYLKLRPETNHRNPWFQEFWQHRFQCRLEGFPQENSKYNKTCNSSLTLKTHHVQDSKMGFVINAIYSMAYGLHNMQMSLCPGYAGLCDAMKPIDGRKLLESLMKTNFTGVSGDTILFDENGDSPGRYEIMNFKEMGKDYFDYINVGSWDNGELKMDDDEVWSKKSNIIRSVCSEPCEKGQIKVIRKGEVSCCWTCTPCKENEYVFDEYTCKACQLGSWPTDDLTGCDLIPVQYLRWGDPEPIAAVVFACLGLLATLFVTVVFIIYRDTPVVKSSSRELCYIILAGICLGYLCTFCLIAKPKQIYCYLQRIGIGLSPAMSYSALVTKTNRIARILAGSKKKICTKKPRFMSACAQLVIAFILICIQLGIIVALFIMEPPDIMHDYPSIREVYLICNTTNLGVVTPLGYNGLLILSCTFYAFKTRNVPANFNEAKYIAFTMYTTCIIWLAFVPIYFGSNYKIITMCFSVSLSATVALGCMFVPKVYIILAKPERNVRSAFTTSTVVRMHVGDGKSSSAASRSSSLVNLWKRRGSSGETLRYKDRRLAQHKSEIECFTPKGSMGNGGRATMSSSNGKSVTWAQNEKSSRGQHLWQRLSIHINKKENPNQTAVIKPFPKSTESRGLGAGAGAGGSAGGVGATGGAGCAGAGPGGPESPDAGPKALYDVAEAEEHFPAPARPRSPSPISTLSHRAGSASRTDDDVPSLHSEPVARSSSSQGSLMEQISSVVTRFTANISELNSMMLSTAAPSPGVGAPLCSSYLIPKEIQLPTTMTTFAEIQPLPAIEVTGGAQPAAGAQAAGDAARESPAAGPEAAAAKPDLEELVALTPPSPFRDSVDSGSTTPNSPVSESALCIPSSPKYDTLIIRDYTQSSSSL
pEC50: −log10 of the molar value.
Please provide measured pEC50 for the entries that follow.

**Q:** Dear colleague, please send me the reported pEC50 for CC(=O)N1CCCn2nc(CN3CCCc4ccccc43)cc21 when you can.
**A:** < 5.00

**Q:** Dear colleague, please send me the reported pEC50 for O=C(c1ccncc1)N1CCCn2nc(COc3ccccc3)cc21 when you can.
**A:** < 5.00

**Q:** Dear colleague, please send me the reported pEC50 for CC(=O)N1CCCn2nc(CNc3ccccc3)cc21 when you can.
**A:** < 5.00
